Exercise: for every item that follows, state its recorded % Ctrl, EGFR(L747-T751del, Sins).
Tested on: kinases
Experiment: KINOMEscan kinase binding assay (Eurofins/DiscoveRx), % Ctrl
Conditions: 1 μM; EGFR(L747-T751del, Sins)
Supply the numeric figure in % Ctrl, leaving out any unit text.

The measured % Ctrl, EGFR(L747-T751del, Sins) that Cc1cc2c([nH]1)/C=C1\C(=O)Nc3ccc(cc31)-c1ccnn1CCOCCNC2=O [Ex.39] showed for kinases is 60

The measured % Ctrl, EGFR(L747-T751del, Sins) that Cc1cc2c([nH]1)/C=C1\C(=O)Nc3cc(Cl)c(cc31)OCCO[C@@H](C(=O)N[C@@H]1CCNC1)CN(C)C2=O [Ex. 136] showed for kinases is 94

The measured % Ctrl, EGFR(L747-T751del, Sins) that Cc1cc2c([nH]1)/C=C1\C(=O)Nc3cc(Cl)c(cc31)OCCOCCN(C)C2=O [Ex. 131] showed for kinases is 59

The measured % Ctrl, EGFR(L747-T751del, Sins) that Cc1cc2c([nH]1)/C=C1\C(=O)Nc3ccc(cc31)OCCOCCNC2=O [Ex. 129] showed for kinases is 85

The measured % Ctrl, EGFR(L747-T751del, Sins) that Cc1cc2c([nH]1)/C=C1\C(=O)Nc3cnc(cc31)-c1cnn(C)c1COCCNC2=O [Ex.123] showed for kinases is 74

The measured % Ctrl, EGFR(L747-T751del, Sins) that Cc1cc2c([nH]1)/C=C1\C(=O)Nc3ccc(cc31)O[C@@H](C)COCCN(C)C2=O [Ex. 92] showed for kinases is 98
